Sourced from ChEMBL document CHEMBL1148740

# Procedure Summary: Plasma clearance in Sprague-Dawley rat at 1 mg/kg, po and 1 mg/kg, iv
# Type: ADME, organism-based
Readout Type: clearance (mL/min/kg)
Give just the numeric value; mL/min/kg need not be written.

-- ask // query clearance value for entry "COCC1=C(C(=O)OC)[C@H](c2ccc(F)c(F)c2)N(C(=O)NCCCN2CCC(c3cccc(NC(C)=O)c3)CC2)C(=O)N1"
-- reply 153

###

# Procedure Summary: Bioavailability in Sprague-Dawley rat at 2 mg/kg, po and 1 mg/kg, iv
# Assay type: ADME, organism-based
# Measurement Parameters: in vivo
Each entry below carries its recorded bioavailability.
Report the value in % with no unit label.

CC(C)C(=O)Nc1cc(C2CCN(CCCNC(=O)C(c3ccc(F)cc3)c3ccc(F)cc3)CC2)c(F)cc1F	48

Continue with the next compound.
-- ask Which bioavailability is listed for "Cc1ccc(NC(=O)C(C)C)cc1C1CCN(CCCNC(=O)[C@@H](C)c2ccc(F)cc2)CC1" ?
-- reply 81
